# Test system: RNA-directed RNA polymerase (Hepacivirus hominis, UniProt O39930)
# Sequence (O39930 whole entry): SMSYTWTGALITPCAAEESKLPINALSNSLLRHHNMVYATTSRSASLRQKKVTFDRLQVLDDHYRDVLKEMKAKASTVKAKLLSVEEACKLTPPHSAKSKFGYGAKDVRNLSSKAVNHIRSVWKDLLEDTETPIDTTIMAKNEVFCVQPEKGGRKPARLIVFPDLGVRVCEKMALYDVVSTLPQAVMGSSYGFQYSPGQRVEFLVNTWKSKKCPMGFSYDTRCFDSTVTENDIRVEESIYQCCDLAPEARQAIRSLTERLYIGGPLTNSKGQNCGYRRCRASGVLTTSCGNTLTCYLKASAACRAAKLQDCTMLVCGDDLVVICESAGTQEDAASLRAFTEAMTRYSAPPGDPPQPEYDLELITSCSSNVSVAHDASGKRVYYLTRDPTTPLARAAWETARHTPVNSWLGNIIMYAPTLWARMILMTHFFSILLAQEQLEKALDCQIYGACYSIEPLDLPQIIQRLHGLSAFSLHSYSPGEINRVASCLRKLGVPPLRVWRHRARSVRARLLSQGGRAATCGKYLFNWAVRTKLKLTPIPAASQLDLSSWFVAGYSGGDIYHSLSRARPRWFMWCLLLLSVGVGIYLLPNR
# Test summary: Inhibitory activity against NS5B polymerase of hepatitis C virus
Parameter: pIC50
Numbers only, as −log10 of the molar value.

Exercise: State pIC50 (RNA-directed RNA polymerase (Hepacivirus hominis, UniProt O39930)) of `O=C(O)c1ccc2c(c1)nc(-c1ccccn1)n2C1CCCC1` .
Key: 4.92

Exercise: State recorded pIC50 with RNA-directed RNA polymerase (Hepacivirus hominis, UniProt O39930), entry `O=C(O)c1ccc2c(c1)nc(-c1cccs1)n2C1CCCCC1` , no comment.
Key: 5.47

Exercise: # return pIC50 for `O=C(O)c1ccc2c(c1)ncn2C1CCCCC1` , test system: RNA-directed RNA polymerase (Hepacivirus hominis, UniProt O39930)
Key: 3.73

Exercise: Please look at `O=C(O)c1ccc2c(c1)nc(-c1ccc[nH]1)n2C1CCCCC1` and tell me its recorded pIC50 on RNA-directed RNA polymerase (Hepacivirus hominis, UniProt O39930).
Key: 5.23

Then this compound:
Exercise: Look up and report pIC50, with RNA-directed RNA polymerase (Hepacivirus hominis, UniProt O39930) as system, for `O=C(O)c1ccc2c(c1)nc(-c1ccccc1)n2C1CCCCC1`
Key: 5.07

----------
Test system RNA-directed RNA polymerase (Hepacivirus hominis, UniProt O39930), pIC50 listed for each of the compounds.
Answers are plain numbers, as −log10 of the molar value.

# count of solved cases: 2
Exercise: Let me know recorded pIC50 for CC1CCCCC1n1c(-c2ccccn2)nc2cc(C(=O)O)ccc21 (stereo unspecified) , thanks.
Key: 4.89

Exercise: Supply reported pIC50 belonging to this compound: `O=C(O)c1ccc2c(c1)nc(-c1ccccn1)n2C1CCCCC1`
Key: 5.37

Next:
Exercise: Return value of pIC50 for input `O=C(O)c1ccc2c(c1)nc(-c1ccco1)n2C1CCCCC1` , no commentary.
Key: 5.43

----------
Record: pIC50 reported on UniProtKB O39930.
One number for each entry, as −log10 of the molar value.

Exercise: Write down pIC50 measured for item `O=C(O)c1ccc2c(c1)nc(-c1cccnc1)n2C1CCCCC1`
Key: 4.55

Please go through the list and note pIC50 for each compound.
1. CC(C)=Cc1nc2cc(C(=O)O)ccc2n1C1CCCCC1
2. COc1ccc(CCNC(=O)c2ccc3c(c2)nc(-c2ccccn2)n3C2CCCCC2)cc1OC

Key:
[4.72, 4.92]

----------
// endpoint pIC50 / system Genome polyprotein (Human poliovirus 1 Mahoney, UniProt P03300)
pIC50: −log10 of the molar value.

Observe how each entry below is paired with its result.
Exercise: Consider the compound `O=C(O)c1ccc2c(c1)nc(-c1ccccn1)n2C1CCCC1` . State its measured pIC50.
Key: < 3.30

Exercise: // fetch pIC50 given entry `O=C(O)c1ccc2c(c1)nc(-c1ccoc1)n2C1CCCCC1`
Key: < 3.60

Exercise: # return recorded pIC50 for input `COc1ccc(CNC(=O)c2ccc3c(c2)nc(-c2ccccn2)n3C2CCCCC2)cc1OC`
Key: < 3.30

// for each compound in input: emit pIC50
1. O=C(O)c1ccc2c(c1)nc(-c1ccccn1)n2C1CCCCC1
2. O=C(O)c1ccc2c(c1)nc(-c1ccsc1)n2C1CCCCC1
3. O=C(O)c1ccc2c(c1)nc(-c1ncc[nH]1)n2C1CCCCC1
4. CC1CCCCC1n1c(-c2ccccn2)nc2cc(C(=O)O)ccc21 (configuration not stated)
5. Cn1cccc1-c1nc2cc(C(=O)O)ccc2n1C1CCCCC1
6. O=C(O)c1ccc2c(c1)nc(-c1ccc[nH]1)n2C1CCCCC1
7. O=C(O)c1ccc2c(c1)nc(-c1cccnc1)n2C1CCCCC1

Key:
["< 3.30", "< 3.60", "< 3.60", "< 3.30", "< 3.30", "< 3.30", "< 3.60"]

Look at each compound and report its pIC50.
1. O=C(O)c1ccc2c(c1)nc(-c1ccncc1)n2C1CCCCC1
2. O=C(O)c1ccc2c(c1)nc(-c1ccccc1)n2C1CCCCC1
3. O=C(O)c1ccc2c(c1)nc(-c1ccco1)n2C1CCCCC1
4. COc1ccc(CCNC(=O)c2ccc3c(c2)nc(-c2ccccn2)n3C2CCCCC2)cc1OC
5. CC(C)=Cc1nc2cc(C(=O)O)ccc2n1C1CCCCC1

Key:
< 3.30
3.60
< 3.30
< 3.30
< 3.30

For the 2 compounds below, give their pIC50 values.
1. O=C(O)c1ccc2c(c1)nc(-c1nccs1)n2C1CCCCC1
2. O=C(O)c1ccc2c(c1)nc(-c1cccs1)n2C1CCCCC1

Key:
< 3.30
< 3.60
